Biological target: JAK3: Recombinant human kinase domain (h-jak3-sf21-c) (Homo sapiens)
Construct: JAK3: Recombinant human kinase domain from Millipore (Cat # 14-629) or prepared
Experiment: Determination of IC50 of Janus Kinase (JAK) inhibition, JAK3 (radioactive end-point assay with 33P-ATP)
Conditions: ATP 1.5 uM, peptide 50 uM, 20 minutes, room temperature
pIC50: −log10 of the molar value.
readout_label: pIC50

Example compounds with recorded pIC50:
C[C@]1(O)CCC[C@@H]1NC(=O)c1c[nH]c2ncc(C3CC3)nc12 (relative stereo)
7.89
O=C(NC1CCCCC1)c1c[nH]c2ncc(Oc3ccccc3)nc12
6.82
Cc1ccc(C#N)cc1NC(=O)c1c[nH]c2ncc(C3CC3)nc12
6.80

I. N#Cc1cccc(NC(=O)c2c[nH]c3ncc(C4CC4)nc23)c1
II. O=C(NC1(CO)CCCC1)c1c[nH]c2ncc(C3CC3)nc12
III. CC1(C)OCCC1NC(=O)c1c[nH]c2ncc(C3CC3)nc12 (centres unmarked)
Exercise: Your job: order these 3 records by pIC50, ascending. Write out the labels following the order that was asked for.
Key: I, II, III

a. O=C(Nc1cccc(C(F)(F)F)c1)c1c[nH]c2ncc(C3CC3)nc12
b. CC(C)(O)C1(NC(=O)c2c[nH]c3ncc(C4CC4)nc23)CCCC1
Exercise: Among a and b , whose measured pIC50 is the smaller figure? Mark your answer with the label of the selected entry.
Key: a
(a: 6.02, b: 7.30)

a. O=C(NC1(CO)CCOCC1)c1c[nH]c2ncc(C3CC3)nc12
b. CC(=O)N[C@@H]1CCc2ccc(Oc3cnc4[nH]cc(C(=O)NC5CCCCC5)c4n3)cc21
Exercise: Hi, I'm comparing a with b and wondering which one has the bigger number for pIC50. Any idea? Mark your answer with the label of the selected entry.
Key: b

---

Reported melting point values are given for each entry in this list.

CS(=O)(=O)N1CCC[C@@H](NC(=O)c2c[nH]c3ncc(C4CC4)nc23)C1
277 to 280 °C
CS(=O)(=O)N1CCCC(NC(=O)c2c[nH]c3ncc(C4CC4)nc23)C1 (stereo not drawn)
284 to 287 °C

With those in mind, consider the next compound.
Lab book: melting point of CC(=O)N1CCC(NC(=O)c2c[nH]c3ncc(C4CC4)nc23)C1 (stereo not drawn) noted as 242 to 245 °C

---

Biological target: JAK3: Recombinant human kinase domain (h-jak3-sf21-c) (Homo sapiens, UniProt P52333)
Construct: JAK3: Recombinant human kinase domain from Millipore (Cat # 14-629) or prepared
Sequence (P52333 822-1111 limits assumed): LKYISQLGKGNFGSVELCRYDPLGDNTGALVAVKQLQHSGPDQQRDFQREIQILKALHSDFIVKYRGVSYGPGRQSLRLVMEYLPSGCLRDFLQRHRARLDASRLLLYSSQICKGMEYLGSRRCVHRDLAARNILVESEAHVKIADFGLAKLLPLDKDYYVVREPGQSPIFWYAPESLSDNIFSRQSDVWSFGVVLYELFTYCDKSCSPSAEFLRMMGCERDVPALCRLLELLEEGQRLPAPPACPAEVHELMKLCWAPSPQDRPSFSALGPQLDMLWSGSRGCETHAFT
Experiment: Determination of IC50 of Janus Kinase (JAK) inhibition, JAK3 (radioactive end-point assay with 33P-ATP)
Conditions: ATP 1.5 uM, peptide 50 uM, 20 minutes, room temperature
pIC50: −log10 of the molar value.
readout_label: pIC50

CC(=O)N1CCC(NC(=O)c2c[nH]c3ncc(C4CC4)nc23)C1 (stereo not drawn) [Compound I-37]
6.92

P. CC1(C)COCC1NC(=O)c1c[nH]c2ncc(C3CC3)nc12 (stereo not drawn) [Compound I-16]
Q. CC(=O)N1CCCC(NC(=O)c2c[nH]c3ncc(C4CC4)nc23)C1 (stereo not drawn) [Compound I-38]
Exercise: Among P and Q , whose measured pIC50 is the smaller figure? Mark your answer with the label of the selected entry.
Key: Q
(Q: 7.13, P: 8.01)
